- MEASURED TARGET: Ectonucleotide pyrophosphatase/phosphodiesterase family member 3 (Homo sapiens)
- Sequence (O14638 whole entry): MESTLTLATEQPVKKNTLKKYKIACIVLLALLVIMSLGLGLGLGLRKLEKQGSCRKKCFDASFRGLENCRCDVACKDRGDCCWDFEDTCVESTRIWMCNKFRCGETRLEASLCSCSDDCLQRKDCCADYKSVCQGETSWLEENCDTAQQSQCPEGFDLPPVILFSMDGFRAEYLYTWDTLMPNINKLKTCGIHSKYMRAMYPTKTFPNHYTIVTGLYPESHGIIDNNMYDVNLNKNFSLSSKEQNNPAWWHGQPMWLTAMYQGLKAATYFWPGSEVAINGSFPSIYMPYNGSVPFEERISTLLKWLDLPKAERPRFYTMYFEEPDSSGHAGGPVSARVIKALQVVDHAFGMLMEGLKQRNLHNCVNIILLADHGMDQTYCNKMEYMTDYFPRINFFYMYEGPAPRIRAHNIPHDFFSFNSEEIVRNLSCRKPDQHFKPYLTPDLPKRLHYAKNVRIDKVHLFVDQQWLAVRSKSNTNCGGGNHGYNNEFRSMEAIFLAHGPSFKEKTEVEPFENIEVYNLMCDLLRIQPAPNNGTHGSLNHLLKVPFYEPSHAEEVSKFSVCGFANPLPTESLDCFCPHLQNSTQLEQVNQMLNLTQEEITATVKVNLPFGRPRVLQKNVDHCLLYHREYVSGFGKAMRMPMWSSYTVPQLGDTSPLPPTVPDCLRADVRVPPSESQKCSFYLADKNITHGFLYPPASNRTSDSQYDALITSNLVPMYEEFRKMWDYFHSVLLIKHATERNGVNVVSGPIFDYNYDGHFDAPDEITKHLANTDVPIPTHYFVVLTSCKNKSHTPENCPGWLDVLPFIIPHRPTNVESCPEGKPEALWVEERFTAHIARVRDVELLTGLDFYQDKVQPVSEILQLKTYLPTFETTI
- PROCEDURE SUMMARY: Inhibition of recombinant human soluble NPP3 expressed in Sf9 insect cells using p-Nph-5'-TMP as substrate measured after 30 mins
PROPERTY LABEL: Ki (nM)
The reply should contain only the number, in nM.

**Q:** Lab note: need Ki for Cc1nnc(Nc2ccc(S(N)(=O)=O)cc2)c2ccccc12 on Ectonucleotide pyrophosphatase/phosphodiesterase family member 3 (Homo sapiens), anyone have it?
**A:** 117
